The reader will find reported AUC at 7 h values listed item by item below.
assay: Oral absorption in Han Wistar rat at 2 mg/kg up to 7 hrs by LC-MS/MS analysis; assay type: ADME, organism-based; design: dose 2 mg/kg; conditions: in vivo, read-out: Fa
Numbers only here, please. The scale is ng·h/mL.

OCc1cc(C(O)CNCCCCCCOCCCCc2ccccc2)ccc1O (configuration not stated)
252

# get_value(readout='AUC at 7 h', item= CC(=O)O.O=S(=O)(c1cccc(CCCCOCCCCCCNC[C@H](O)c2ccc(O)c(CO)c2)c1)C1CCCC1 ) 15.9

###

molecular target: UniProt:P05177; test: Inhibition of human CYP1A2 expressed in Escherichia coli; type: ADME
Sequence (P05177 whole entry): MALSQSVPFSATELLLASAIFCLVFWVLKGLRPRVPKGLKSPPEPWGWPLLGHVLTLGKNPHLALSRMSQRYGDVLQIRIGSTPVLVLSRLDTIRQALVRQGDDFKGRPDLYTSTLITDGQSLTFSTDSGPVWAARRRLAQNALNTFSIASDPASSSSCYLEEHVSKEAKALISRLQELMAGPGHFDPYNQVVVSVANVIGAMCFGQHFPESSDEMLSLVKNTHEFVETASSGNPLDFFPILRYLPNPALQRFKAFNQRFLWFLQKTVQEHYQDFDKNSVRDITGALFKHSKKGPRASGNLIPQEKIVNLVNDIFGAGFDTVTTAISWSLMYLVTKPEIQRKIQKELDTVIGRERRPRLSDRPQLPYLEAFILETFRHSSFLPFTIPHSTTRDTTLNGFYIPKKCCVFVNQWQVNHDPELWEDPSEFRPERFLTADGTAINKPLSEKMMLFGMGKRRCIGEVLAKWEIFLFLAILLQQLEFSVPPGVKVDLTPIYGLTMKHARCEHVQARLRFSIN
pIC50: −log10 of the molar value.
assay.endpoint: pIC50

Look up pIC50 with UniProt:P05177 for this compound: CC(=O)O.O=S(=O)(c1cccc(CCCCOCCCCCCNC[C@H](O)c2ccc(O)c(CO)c2)c1)C1CCCC1 < 4.00

###

experiment: Ratio of drug uptake from blood to plasma in human; type: ADME
assay.endpoint: blood plasma ratio
// return a plain number; no unit text

Record request: blood plasma ratio value, item CC(=O)O.O=S(=O)(c1cccc(CCCCOCCCCCCNC[C@H](O)c2ccc(O)c(CO)c2)c1)C1CCCC1 0.65

###

test: Ratio of drug uptake from blood to plasma in rat; type: ADME
assay.endpoint: blood plasma ratio
Answer using only a numeral; do not append any unit.

Dear colleague, I am looking for the recorded blood plasma ratio of the following molecule: CC(=O)O.O=S(=O)(c1cccc(CCCCOCCCCCCNC[C@H](O)c2ccc(O)c(CO)c2)c1)C1CCCC1 1.3

###

assay: Half life in beagle dog at 0.05 mg/kg, iv up to 8 hrs by LC-MS/MS analysis; type: ADME, organism-based, Canis lupus familiaris; set-up: dose 0.05 mg/kg, route intravenous; conditions: in vivo
assay.endpoint: half-life
Show the value, then the unit it is measured in.

If you can, please state the reported half-life value of CC(=O)O.O=S(=O)(c1cccc(CCCCOCCCCCCNC[C@H](O)c2ccc(O)c(CO)c2)c1)C1CCCC1 . 24 min

###

target: Cytochrome P450 2C9 (Homo sapiens, UniProt P11712)
Sequence (P11712 whole entry): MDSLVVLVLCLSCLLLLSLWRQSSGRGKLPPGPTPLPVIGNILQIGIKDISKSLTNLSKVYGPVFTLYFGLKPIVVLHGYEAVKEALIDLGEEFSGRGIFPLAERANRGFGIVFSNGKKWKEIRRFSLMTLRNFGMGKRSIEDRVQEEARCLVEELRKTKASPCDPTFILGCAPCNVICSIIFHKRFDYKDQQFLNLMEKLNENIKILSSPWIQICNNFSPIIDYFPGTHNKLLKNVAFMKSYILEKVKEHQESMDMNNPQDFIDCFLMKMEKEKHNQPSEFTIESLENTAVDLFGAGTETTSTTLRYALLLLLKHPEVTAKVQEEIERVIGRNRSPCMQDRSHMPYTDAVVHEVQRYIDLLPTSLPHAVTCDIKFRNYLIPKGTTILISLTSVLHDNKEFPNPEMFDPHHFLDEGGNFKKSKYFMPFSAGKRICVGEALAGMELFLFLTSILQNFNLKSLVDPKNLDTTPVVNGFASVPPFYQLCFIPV
pIC50: −log10 of the molar value.
assay.endpoint: pIC50

// returns reported pIC50 for input CC(=O)O.O=S(=O)(c1cccc(CCCCOCCCCCCNC[C@H](O)c2ccc(O)c(CO)c2)c1)C1CCCC1 < 5.00

###

assay: Half life in Han Wistar rat at 0.25 mg/kg, iv up to 7 hrs by LC-MS/MS analysis; assay type: ADME, organism-based; parameters: dose 0.25 mg/kg, route intravenous; conditions: in vivo
assay.endpoint: half-life (min)
Could you give me the number in min? Just the number is fine.

Request the reported half-life associated with CC(=O)O.O=S(=O)(c1cccc(CCCCOCCCCCCNC[C@H](O)c2ccc(O)c(CO)c2)c1)C1CCCC1 30
